systemName: CTLA-4 (UniProt P16410 P16410:36-161)
Sequence (P16410 36-161, one chain of several): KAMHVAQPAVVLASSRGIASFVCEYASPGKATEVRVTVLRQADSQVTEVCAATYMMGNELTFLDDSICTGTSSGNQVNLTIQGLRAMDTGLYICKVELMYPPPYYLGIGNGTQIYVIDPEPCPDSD
protocol: CTLA-4 stably expressing 293 cells, 2-fold dilutions from 250 nM; no binding to non-transfected 293T by flow at 10 nM
testSettings: tags: expressed on CTLA-4-transfected 293T / stably expressing 293 cells; label: AlexaFluor 647 (flow cytometry); possible G-quadruplex; Mfold secondary structure dG -10.6
pKd: −log10 of the molar value.
readout: pKd

> print(dat)
                                     binder  reportedvalue
1  CA21 (ssDNA) DNA: TCCCTACGGCGCTAACGATGGTGAAAATGGGCCTAGGGTGGACGGTGCCACCGTGCTACAAC           7.93
